# reported PBM binding z-score; entries follow
System: PPARg:RXRa DBDmut IVT, anti-RXR (DBD mutation: RXRa K156A/R161A, NR concentration 270 nM, RXRa partner concentration 90 nM)
Assay: PBM binding z-score (relative to random genomic background probes); higher = stronger binding; sequences stand for … in GC…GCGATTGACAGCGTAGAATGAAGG
Number only, no unit.

Some sequences with recorded PBM binding z-score:
CCTCGGAGGACAACAGGACGTCAGAGCTGCCAGA :: -0.431
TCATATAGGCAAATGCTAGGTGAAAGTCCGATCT :: 2.29
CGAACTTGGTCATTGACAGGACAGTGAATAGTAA :: 0.617

# input Look up PBM binding z-score of ACAGACAGGTGAGTGATGGTAACTCAGCTGGACG and report it.
# output 0.622

# input Look up PBM binding z-score of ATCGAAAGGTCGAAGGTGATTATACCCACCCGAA and report it.
# output 0.155

# input Look up PBM binding z-score of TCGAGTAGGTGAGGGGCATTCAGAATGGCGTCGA and report it.
# output 3.64

# input Look up PBM binding z-score of ACTAGTTGGTCTGCTGAGGTCACACACAATTCGG and report it.
# output 0.557

# input Look up PBM binding z-score of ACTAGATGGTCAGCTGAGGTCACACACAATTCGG and report it.
# output 0.982

====

Tested on: THRa:RXRa (NR concentration 90 nM, RXRa partner concentration 90 nM)
Experiment: PBM binding z-score (relative to random genomic background probes); higher = stronger binding; sequences stand for … in GC…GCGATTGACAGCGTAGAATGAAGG
Lab note: anything with PBM binding z-score at or over 1 counts as fulfilled; the rest go in not fulfilled.

# input Is PBM binding z-score for CGTCACAGTTCAAGGTAACGTAACAGAAAGCAGC at or above 1?
# output fulfilled

# input Is PBM binding z-score for CGTCCAAGGTCAAGGCTAGGTCAGTGAAAGCATT at or above 1?
# output fulfilled

====

# reported PBM binding z-score; entries follow
System: LXRb:RXRa (NR concentration 270 nM, RXRa partner concentration 90 nM)
Assay: PBM binding z-score (relative to random genomic background probes); higher = stronger binding; sequences stand for … in GC…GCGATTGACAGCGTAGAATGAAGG
Number only, no unit.

Some sequences with recorded PBM binding z-score:
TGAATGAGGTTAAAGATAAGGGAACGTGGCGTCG :: 1.5
GCATCTAGGTAATACAAGGTGAAAGTCCGATTGT :: 0.383
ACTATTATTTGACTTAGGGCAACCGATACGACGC :: 0.685
CGTCCAAGGTCAATGCTAGGTCAGTGGAAGCATT :: 3.78
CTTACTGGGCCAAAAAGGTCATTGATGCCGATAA :: 4.26

Turning now to a further record.
# input Give PBM binding z-score only, for GCTGCTAAGTCAGGTTGGTCAGCTAACGGGTACG , using LXRb:RXRa (NR concentration 270 nM, RXRa partner concentration 90 nM) data.
# output -0.836

====

Test system: LXRb homodimer (NR concentration 270 nM)
Assay: PBM binding z-score (relative to random genomic background probes); higher = stronger binding; sequences stand for … in GC…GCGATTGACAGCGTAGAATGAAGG
# reported PBM binding z-score; entries follow

# input Give PBM binding z-score only, for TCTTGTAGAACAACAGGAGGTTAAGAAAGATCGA , using LXRb homodimer (NR concentration 270 nM) data.
# output -0.216

Hello, the source for this data is the supplement of paper PMC6555819, in case you need it.
